- Tested on: Myotonic Dystrophy 1 affected patient fibroblasts (Coriell GM04602; 1600 CTG repeats)
- TEST: DM1 foci reduction assay (CAG10-Cy3 FISH, average foci per nucleus)
- Type: cell-based
- RUN PARAMETERS: Homo sapiens, Fibroblast, 48 h, read-out: Foci Reduction in Fibroblast EC50, 48 h (nM)
PROPERTY MEASURED: EC50

Reference set (4 entries):
CC(C)C[C@H](NC(=O)[C@H](C)NC(=O)[C@H](Cc1ccccc1)NC(=O)c1ccc(C(C)(C)C)cc1)C(=O)N[C@@H](CCCCN(C)C1CC2CCC1C2)C(=O)N[C@@H](CO)C(=O)NCCOCCOCCNC(=O)CCNC(=O)c1nc(NC(=O)c2cc(NC(=O)CCNC(=O)c3nc(NC(=O)CCCNC(=O)c4cc(NC(=O)c5nc(NC(=O)CCNC(=O)c6cc(NC(=O)c7nccn7C)cn6C)cn5C)cn4C)cn3C)cn2C)cn1C (some centres unmarked); < 100 nM
CCN(CC)CCCC[C@H](NC(=O)[C@H](CC(C)C)NC(=O)[C@H](C)NC(=O)[C@H](Cc1ccccc1)NC(=O)c1ccc(C(C)(C)C)cc1)C(=O)N[C@@H](CO)C(=O)N(C)CCOCCOCCN(C)C(=O)CCNC(=O)c1nc(NC(=O)c2cc(NC(=O)CCNC(=O)c3nc(NC(=O)CCCNC(=O)c4cc(NC(=O)c5nc(NC(=O)CCNC(=O)c6cc(NC(=O)c7nccn7C)cn6C)cn5C)cn4C)cn3C)cn2C)cn1C; < 100 nM
CCN(CC)CCCCC(NC(=O)[C@H](CC(C)C)NC(=O)C(C)NC(=O)[C@H](Cc1ccccc1)NC(=O)c1ccc(C(C)(C)C)cc1)C(=O)N[C@@H](CO)C(=O)NCCCN(C)CCCNC(=O)CCNC(=O)c1nc(NC(=O)c2cc(NC(=O)CCNC(=O)c3nc(NC(=O)CCCNC(=O)c4cc(NC(=O)c5nc(NC(=O)CCNC(=O)c6cc(NC(=O)c7nccn7C)cn6C)cn5C)cn4C)cn3C)cn2C)cn1C (stereo in doubt); > 500 nM
CCN(CC)CCCC[C@H](NC(=O)COCCOCCNC(=O)c1ccc(C(C)(C)C)cc1)C(=O)N[C@@H](CO)C(=O)NCCOCCOCCOCCOCCOCCNC(=O)CCNC(=O)c1nc(NC(=O)c2cc(NC(=O)CCNC(=O)c3nc(NC(=O)CCCNC(=O)c4cc(NC(=O)c5nc(NC(=O)CCNC(=O)c6cc(NC(=O)c7nccn7C)cn6C)cn5C)cn4C)cn3C)cn2C)cn1C; 100 to 500 nM

// next item, EC50 requested
Exercise: Suppose we examine the molecule CCN(CC)CCCC[C@H](NC(=O)[C@H](CC(C)C)NC(=O)[C@H](C)NC(=O)[C@H](Cc1ccccc1)NC(=O)c1ccc(C(C)(C)C)cc1)C(=O)N[C@@H](CO)C(=O)NCCOCCOCCOCCOCCOCCN(CCCCN=[N+]=[N-])C(=O)CCNC(=O)c1nc(NC(=O)c2cc(NC(=O)CCNC(=O)c3nc(NC(=O)CCCNC(=O)c4cc(NC(=O)c5nc(NC(=O)CCNC(=O)c6cc(NC(=O)c7nccn7C)cn6C)cn5C)cn4C)cn3C)cn2C)cn1C ; what EC50 value has been reported?
Key: < 100 nM

These entries and their values trace back to patent US20240166693A1.
